# TARGET_OF_ASSAY: T1, extracellular domain of activin receptor type IIB (ActRIIBecd), biotinylated (Homo sapiens (Human), UniProt Q13705 27-117, amino-biotinylated with amine-PEG3-Biotin)
# T1 construct: immobilised on a streptavidin-coated sensor chip; also called biotinylated ActRIIBecd; extracellular domain of ActRIIB
# T1 sequence: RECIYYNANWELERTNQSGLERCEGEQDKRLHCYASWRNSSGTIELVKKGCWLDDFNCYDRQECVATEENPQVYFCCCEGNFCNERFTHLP
# ASSAY_NAME: BIAcore SPR as Example 5 (method not restated); SD ±2.12 nM
PROPERTY_LABEL: pKd
Scale: negative log10 of molar concentration, which is what pKd denotes.

Form field: reported pKd of SEQ ID NO: 188, cysteine pairs C15-C44^a (designed binder, disulfides C15-C44 (intra)) AQAKHKQRKRLKSSCKRHPLYVDFSDVGWNDWIVAPPGYHAFYCHGECPFPLADHLNSTNHAIVQTLVNSV
7.37

Recorded values, source patent US20190071480A1.
